species on record: Rattus norvegicus; assay: DrugMatrix - Regimen: Daily Repeat; type: toxicity, organism-based, Sprague-Dawley; set-up: regimen Daily Repeat, gender Male, age 6-8 weeks; settings: in vivo, po, 1500 mg/kg, 120 h, tissue Blood, route oral GAVAGE, dose level High, time 5 day, vehicle .5 % CMC
Assay endpoint: HEMATOCRIT (%)
Write it as a number; the unit % goes unstated.

O=c1cnn([C@@H]2O[C@H](CO)[C@@H](O)[C@H]2O)c(=O)[nH]1 [6-AZAURIDINE] yielded HEMATOCRIT of 30

CC(C)=CCC/C(C)=C/CO [GERANIOL] yielded HEMATOCRIT of 36.67

COC(=O)Nc1nc2ccc([S+]([O-])c3ccccc3)cc2[nH]1 (stereo not given) [OXFENDAZOLE] yielded HEMATOCRIT of 32.9

CC(C)Oc1ccc2c(=O)c(-c3ccccc3)coc2c1 [IPRIFLAVONE] yielded HEMATOCRIT of 35.17

CN(C)[C@@H]1C(O)=C(C(N)=O)C(=O)[C@@]2(O)C(O)=C3C(=O)c4c(O)ccc(Cl)c4[C@@](C)(O)[C@H]3C[C@@H]12 [CHLORTETRACYCLINE] yielded HEMATOCRIT of 34.33

* * *

species: Rattus norvegicus; test: DrugMatrix - Regimen: Daily Repeat; type: toxicity, organism-based, Sprague-Dawley; set-up: regimen Daily Repeat, gender Male, age 6-8 weeks; details: in vivo, sc, 0 mg/kg, 72 h, tissue Blood, route subcutaneous, dose level Control, time 3 day, […]
Reported HEMATOCRIT values are given for each entry in this list.
Write it as a number; the unit % goes unstated.

Compound	Unit info	Assay result
Oc1c(Cl)cc(Cl)c(Cl)c1Cc1c(O)c(Cl)cc(Cl)c1Cl [HEXACHLOROPHENE]	%	34.85
CCC(=O)O[C@]1(C(=O)CCl)[C@@H](C)C[C@H]2[C@@H]3CCC4=CC(=O)C=C[C@]4(C)[C@@]3(F)[C@@H](O)C[C@@]21C [CLOBETASOL PROPIONATE]	%	35.35
CC(C)(C)CC(C)(C)c1ccc(OCCOCC[N+](C)(C)Cc2ccccc2)cc1.[Cl-] [BENZETHONIUM CHLORIDE]	%	34.85

CCN(CC)CCOCCC1=CCC2CC1C2(C)C (stereo not given) [MYRTECAINE] yielded HEMATOCRIT of 33.78

O=C(Nc1ccc(Br)cc1)c1cc(Br)cc(Br)c1O [TRIBROMSALAN] yielded HEMATOCRIT of 35.35

* * *

species on record: Rattus norvegicus; test: DrugMatrix - Regimen: Daily Repeat; format: toxicity, organism-based, Sprague-Dawley; design: regimen Daily Repeat, gender Male, age 6-8 weeks; settings: in vivo, po, 2000 mg/kg, 72 h, tissue Plasma, route oral GAVAGE, dose level High, time 3 day, vehicle .5 % CMC
Assay endpoint: SODIUM (MEQ/L)
Write it as a number; the unit MEQ/L goes unstated.

Take a look at these entries with their results.
Molecule	SODIUM / MEQ/L
CC1(C)S[C@@H]2[C@H](NC(=O)[C@H](N)c3ccccc3)C(=O)N2[C@H]1C(=O)O	144.13
CN/C(=N/CCSCc1nc[nH]c1C)NC#N	141.97
O=C1Nc2ccc(Cl)cc2C(c2ccccc2Cl)=NC1O (stereo unspecified)	140.87
COc1cc2nc(N3CCN(C(=O)c4ccco4)CC3)nc(N)c2cc1OC	144.9
NC1CCN(c2nc3c(cc2F)c(=O)c(C(=O)O)cn3-c2ccc(F)cc2F)C1 (stereo unspecified)	153.33

CN(C/C=C/C#CC(C)(C)C)Cc1cccc2ccccc12 yielded SODIUM of 156.33
